Molecular target: UniProt:P17597
Assay: Inhibitory activity against Acetolactate synthase (ALS) enzyme by using the rape-root growth method
Readout kind: IC50

// IC50 lookup, molecule = "O=C(OCn1ccc(=O)[nH]c1=O)c1ccc([N+](=O)[O-])cc1" , result: > 100 p.p.m.

// IC50 lookup, molecule = "COc1ccc(C(=O)OCn2ccc(=O)[nH]c2=O)cc1" , result: > 100 p.p.m.

// IC50 lookup, molecule = "COc1ccccc1C(=O)OCn1ccc(=O)[nH]c1=O" , result: > 100 p.p.m.

// IC50 lookup, molecule = "Cc1cccc(C(=O)OCn2ccc(=O)[nH]c2=O)c1" , result: 16.04 p.p.m.

###

Biological target: Acetolactate synthase, chloroplastic (Arabidopsis thaliana, UniProt P17597)
Sequence (P17597 whole entry): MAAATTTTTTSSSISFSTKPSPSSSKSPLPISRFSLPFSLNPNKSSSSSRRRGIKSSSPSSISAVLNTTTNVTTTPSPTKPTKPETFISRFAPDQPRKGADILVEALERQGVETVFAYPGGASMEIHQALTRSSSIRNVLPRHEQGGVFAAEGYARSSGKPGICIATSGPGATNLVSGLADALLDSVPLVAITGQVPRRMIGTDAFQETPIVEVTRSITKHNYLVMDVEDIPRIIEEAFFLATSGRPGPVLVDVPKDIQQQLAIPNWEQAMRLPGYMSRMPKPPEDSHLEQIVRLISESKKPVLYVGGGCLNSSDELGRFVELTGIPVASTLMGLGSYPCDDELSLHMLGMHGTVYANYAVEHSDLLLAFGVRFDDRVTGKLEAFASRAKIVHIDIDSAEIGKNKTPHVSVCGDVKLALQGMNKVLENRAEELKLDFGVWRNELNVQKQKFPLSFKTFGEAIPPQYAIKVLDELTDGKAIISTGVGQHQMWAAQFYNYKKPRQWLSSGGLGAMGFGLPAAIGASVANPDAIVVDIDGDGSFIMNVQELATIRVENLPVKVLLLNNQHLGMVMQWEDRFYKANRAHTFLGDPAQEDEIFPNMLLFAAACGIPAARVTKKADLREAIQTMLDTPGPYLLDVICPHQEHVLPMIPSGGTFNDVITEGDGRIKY
Assay: Inhibitory activity against Acetolactate synthase (ALS) enzyme by using the rape-root growth method
Readout kind: IC50 (p.p.m.)

O=C(OCn1ccc(=O)[nH]c1=O)c1ccccc1: 55.36
O=C(OCn1ccc(=O)[nH]c1=O)c1ccc(F)cc1: 55.86
O=C(OCn1ccc(=O)[nH]c1=O)c1ccc(Cl)cc1: 51.29
O=C(OCn1ccc(=O)[nH]c1=O)c1ccc(Br)cc1: 55.38

###

Biological target: Acetolactate synthase, chloroplastic (Arabidopsis thaliana, UniProt P17597)
Sequence (P17597 whole entry): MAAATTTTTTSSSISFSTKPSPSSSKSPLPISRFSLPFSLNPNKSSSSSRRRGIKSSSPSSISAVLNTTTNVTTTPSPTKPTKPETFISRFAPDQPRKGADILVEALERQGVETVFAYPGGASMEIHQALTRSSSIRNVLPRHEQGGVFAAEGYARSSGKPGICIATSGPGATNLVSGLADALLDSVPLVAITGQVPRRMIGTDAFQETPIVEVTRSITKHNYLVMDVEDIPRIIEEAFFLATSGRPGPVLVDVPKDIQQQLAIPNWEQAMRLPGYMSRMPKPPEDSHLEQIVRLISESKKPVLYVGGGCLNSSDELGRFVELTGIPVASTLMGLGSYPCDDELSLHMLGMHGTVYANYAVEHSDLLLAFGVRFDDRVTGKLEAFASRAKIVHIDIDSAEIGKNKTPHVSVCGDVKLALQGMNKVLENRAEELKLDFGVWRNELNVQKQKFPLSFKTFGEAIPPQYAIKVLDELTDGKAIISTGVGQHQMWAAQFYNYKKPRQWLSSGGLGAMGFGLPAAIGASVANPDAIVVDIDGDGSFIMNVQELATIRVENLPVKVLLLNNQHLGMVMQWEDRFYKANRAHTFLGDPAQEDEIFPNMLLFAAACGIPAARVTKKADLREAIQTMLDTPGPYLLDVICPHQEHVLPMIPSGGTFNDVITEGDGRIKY
Assay: Inhibitory activity against Acetolactate synthase (ALS) enzyme by using the rape-root growth method
Readout kind: IC50 (M l-1)

COc1cc(Cl)nc(NS(=O)(=O)c2ccc(F)cc2)n1: 0.000111

(I) Cc1ccc(NS(=O)(=O)c2ccc(F)cc2)nc1
(II) Cc1ccnc(NS(=O)(=O)c2ccccc2[N+](=O)[O-])n1
Input line: Task for the reader: decide whether I or II has the larger IC50. Record your answer as the label of the chosen record.
Output line: II
